Data provenance is BigSolDB 2.1.

- assay.context: in ethanol, 274.15 K

item.smiles: c1ccc2oc(CSCc3nc4ccccc4o3)nc2c1
solubility (mole fraction): 0.00741

====

- assay.context: in isopropanol, 289.15 K

item.smiles: c1ccc2oc(CSCc3nc4ccccc4o3)nc2c1
solubility (mole fraction): 0.00523

====

- assay.context: in ethanol, 283.15 K

item.smiles: c1ccc2oc(CSCc3nc4ccccc4o3)nc2c1
solubility (mole fraction): 0.014

====

- assay.context: in chlorobenzene, 274.85 K

item.smiles: c1ccc2oc(CSCc3nc4ccccc4o3)nc2c1
solubility (mole fraction): 0.00424

====

- assay.context: in isopropanol, 283.15 K

item.smiles: c1ccc2oc(CSCc3nc4ccccc4o3)nc2c1
solubility (mole fraction): 0.00333

====

- assay.context: in isopropanol, 313.15 K

item.smiles: c1ccc2oc(CSCc3nc4ccccc4o3)nc2c1
solubility (mole fraction): 0.0268

====

- assay.context: in ethanol, 298.15 K
measured.metric: solubility (mole fraction)

item.smiles: c1ccc2oc(CSCc3nc4ccccc4o3)nc2c1
readout.value: 0.0377

====

- assay.context: in isopropanol, 298.15 K

item.smiles: c1ccc2oc(CSCc3nc4ccccc4o3)nc2c1
solubility (mole fraction): 0.0105
